system: NCI-H522 lung; experiment: NCI tumour cell line growth inhibition, 48 h; in the data active = GI50 below about 0.43 µM; inactive = the rest
Classes used: YES for active, NO for inactive

# CHEMICAL_STRUCTURE, TESTED_TARGET, CLASS_LABEL
rows = [
    ("Cc1ccc(Cl)cc1Nc1nc(C(F)(F)F)ccc1C(=O)Oc1ccc(Cl)cc1", "NCI-H522 lung", "NO"),
    ("O=[N+]([O-])c1ccc2[nH]cc(-c3c4ccccc4cc4[nH]c5ccc([N+](=O)[O-])cc5c34)c2c1", "NCI-H522 lung", "NO"),
    ("CSC(=S)N/N=C(\\C)c1ccccn1", "NCI-H522 lung", "YES"),
    ("COc1cc(/C=C/C(=O)c2ccc(Nc3nc(Nc4ccc(F)cc4)nc(Nc4ccc(F)cc4)n3)cc2)cc(OC)c1OC", "NCI-H522 lung", "NO"),
    ("COc1ccc2c(CNCCCCO)cc3cc4c(cc3c2c1)OCO4", "NCI-H522 lung", "YES"),
    ("COc1ccc(/C=C(/C(=O)N2CCNCC2)c2cc(OC)c(OC)c(OC)c2)cc1O", "NCI-H522 lung", "NO"),
    ("CN(C)CCn1cc(-c2ccc3c(Nc4ccc(CC(=O)Nc5cccc(F)c5)cc4)ncnc3c2)cn1", "NCI-H522 lung", "NO"),
    ("O=Nc1c(-c2cccc([N+](=O)[O-])c2)nc2ncccn12", "NCI-H522 lung", "NO"),
]

* * *

tested on: KM12 colon; experiment: NCI tumour cell line growth inhibition, 48 h
Here, each record is paired with measured TGI data.

# MOLECULE, TGI
rows = [
    ("CC(=O)Nc1ccc(C(=O)N[C@@H]2C(=O)N3[C@@H]2SC(C)(C)[C@@H]3C(=O)O)cn1", "> 100 µM"),
    ("CCN1C(=O)N(c2c(F)c(OC)cc(OC)c2F)Cc2cnc3[nH]c(CN4CCOCC4)cc3c21", "> 100 µM"),
    ("CCN(CC)P1(=S)Oc2ccc3ccccc3c2-c2c(ccc3ccccc23)O1", "> 100 µM"),
    ("CCCCCCc1cc(C=O)sc1-c1ccc(-c2sc(-c3ccc(-c4ccc(-c5cc(CCCCCC)c(-c6ccc(-c7sc(C=O)cc7CCCCCC)s6)s5)s4)s3)cc2CCCCCC)s1", "> 100 µM"),
    ("O=C1C(c2ccccc2)=C(c2ccccc2)C(c2ccccc2)/C1=C1\\C(=O)C(c2ccccc2)=C(c2ccccc2)C1c1ccccc1 (centres undefined)", "> 100 µM"),
    ("CCOC1NC(=O)Oc2ccccc21 (centres undefined)", "> 100 µM"),
    ("COc1cc2c(cc1-c1c(C)noc1C)ncc1nc(C3CCCCC3)n(C3CCC(OC(F)F)CC3)c12 (centres undefined)", "> 100 µM"),
    ("Cc1cc(SCC(=O)c2ccc(Br)cc2)cc(C)[o+]1", "62.6 µM"),
    ("CC(=O)O[C@H]1CC[C@@]2(C)C(=CC[C@@H]3C2CC[C@]2(C)Nc4oncc4CC32)C1 (some centres undefined)", "61.4 µM"),
    ("C=C1C(=O)O[C@H]2C1C[C@@H](O)[C@@]1(C)OC1CC[C@@]1(C)O[C@H]21 (some centres undefined)", "53.2 µM"),
    ("CCOC(=O)c1c(NC(=S)NCc2ccccc2)sc2c1CCN(C)C2", "> 100 µM"),
    ("CC1(C(O)c2ccccc2)CN(C(C)(C)C)C(=O)/C1=C\\Sc1ccccc1 (centres undefined)", "> 100 µM"),
    ("O=c1c(-c2ccccc2)c[nH]c2cc([N+](=O)[O-])c(/C(Cl)=C/c3ccccc3)cc12", "38.6 µM"),
    ("O=C1/C(=C/c2ccc(O)cc2)CCC1CNc1ccc(Cl)cc1 (centres undefined)", "8.45 µM"),
]

* * *

GI50 values for the molecules below.
system: SF-295 CNS; test: NCI tumour cell line growth inhibition, 48 h

# MOLECULE, TESTED_TARGET, GI50
measured = [
    ("CCCNc1nc(-c2ccc(OC)cc2)nc2ccccc12", "SF-295 CNS", "15.7 µM"),
    ("NC(=O)NC(=O)CI", "SF-295 CNS", "23.9 µM"),
    ("COc1ccccc1Nc1nc(-c2cc3cccc(C(F)(F)F)c3oc2=O)cs1", "SF-295 CNS", "0.0353 µM"),
    ("CN(C)/[N+]([O-])=N/Oc1cc(Nc2ccc(C(=O)O)cc2)c([N+](=O)[O-])cc1[N+](=O)[O-]", "SF-295 CNS", "16.9 µM"),
    ("CN(C)CCn1cc(-c2ccc3c(Nc4ccc(CC(=O)Nc5cccc(F)c5)cc4)ncnc3c2)cn1", "SF-295 CNS", "2.95 µM"),
    ("O=C1c2cccnc2-c2nc(-c3ccc([N+](=O)[O-])cc3)cc3c2c1nc1ccccc13", "SF-295 CNS", "4.47 µM"),
    ("CC1SC(c2cccs2)N(NC(=O)C(O)c2ccccc2)C1=O (configuration not stated)", "SF-295 CNS", "> 100 µM"),
]

* * *

system: MALME-3M melanoma; assay: NCI tumour cell line growth inhibition, 48 h
Some compounds, each annotated with its measured TGI.

# COMPOUND, RELATION_SYMBOL, TGI (µM)
rows = [
    ("COC(=O)c1ccc(/C=C/C2=CC(=O)C=CC2=O)cc1", "=", 36.9),
    ("CC1(C)COC(c2cccc(C3=NC(C)(C)CO3)c2)=N1", ">", 100),
    ("CCN(CCCl)CCNc1c2ccccc2nc2ccc(OC)cc12", "=", 2.31),
    ("COc1ccc(N(C(=O)OC(C)(C)C)[C@@H]2C(C)=C[C@H]([S@@](=O)c3ccc(C)cc3)[C@@H]3C(=O)N(C)C(=O)[C@@H]32)cc1", "=", 71.8),
    ("O=S1(=O)CSc2ccc3ccccc3c2-c2c1ccc1ccccc21", ">", 100),
    ("C#CCNC(Cc1ccccc1)C(=O)O (stereo unspecified)", ">", 100),
    ("COc1ccc2c(c1)CCC(CN1CCN(CCOC(c3ccc(F)cc3)c3ccc(F)cc3)CC1)=C2", "=", 27.9),
    ("CCOC(=O)[C@H]1Nc2ccc(O)cc2C2c3ccccc3CC21 (stereo partly specified)", ">", 100),
    ("COC(=O)CSc1[nH]c2nc(C)nc(Nc3ccccc3)c2c1C#N", ">", 10),
    ("CC(C)(C)NNc1c([N+](=O)[O-])cnn(-c2ccccc2)c1=O", "=", 11.1),
    ("COCOc1cc(OC)ccc1C=O", ">", 100),
    ("CCC(C#N)N(Cc1cccc(CN(C(C)=O)C(C#N)CC)c1)C(C)=O (stereo unspecified)", ">", 100),
    ("Cc1c2cc[n+](C)cc2c(COC2OC(CO)C(O)C2O)c2c3ccccc3n(C)c12 (stereo unspecified)", "=", 98.4),
    ("CO/N=C1/c2cc(OC)ccc2-c2c(NOC)nc3ccccc3c21", "=", 23.7),
    ("CN(C)CCn1cc(-c2ccc3c(Nc4ccc(CC(=O)Nc5cccc(F)c5)cc4)ncnc3c2)cn1", ">", 10),
    ("COC(=O)CP1(=O)OC2C(C3CCC2(C)C3(C)C)N1c1cc(C(F)(F)F)cc(C(F)(F)F)c1 (stereo unspecified)", "=", 58.1),
    ("CC1(c2cccc(C3CCC4(C=CC3=O)OCCO4)c2)OCCO1 (stereo unspecified)", "=", 10.9),
    ("CC1=C(C)C(=O)C(C(C)C2=C(C)C(=O)C(C)=C(C)C2=O)=C(C)C1=O", ">", 100),
    ("CC1SC(c2cccs2)N(NC(=O)C(O)c2ccccc2)C1=O (stereo unspecified)", ">", 100),
    ("OC(Cn1cncn1)(Cn1cncn1)c1ccc(Cl)cc1Cl", ">", 100),
    ("Fc1ccc(Nc2nc(Nc3ccc(-c4nc5ccccc5[nH]4)cc3)nc(N3CCCC3)n2)cc1", "=", 4.81),
]

* * *

test system: 786-0 renal; test: NCI tumour cell line growth inhibition, 48 h
Item-by-item account of TGI

# COMPOUND, RELATION_SYMBOL, TGI / µM
data = [
    ("Cc1ccc(/C=C2\\CCOC2=O)cc1", ">", 100),
    ("Cc1cccc(Nc2cn(CCOc3ccccc3)c(=O)[nH]c2=O)c1", ">", 100),
    ("C=C1C(=O)OC2C(C)C3C=CC(=O)[C@@]3(C)C(OC(=O)/C(C)=C/C)C1[C@@H]2OC(C)=O (stereo not given in full)", "=", 0.63),
    ("NCCOc1ccccn1", ">", 100),
    ("COc1ccc(OC)c2c1C[C@@H]1C(C#N)N3[C@H](Cc4c(OC)ccc(OC)c4[C@@H]3C)C(=O)N1[C@H]2C (stereo not given in full)", "=", 7.72),
    ("Cc1ccccc1NC(=O)c1[nH]c(=S)nc(N)c1-c1ccccc1C", ">", 100),
    ("Cc1c(Cl)cccc1NC(=O)C(=O)C1C(=O)NC(=O)NC1=O", ">", 100),
    ("N=C(/C=C/c1ccc(-c2cn3cc(/C=C/C(=N)N4CCOCC4)ccc3n2)cc1)N1CCOCC1", ">", 100),
    ("C=C(C)C1CC2=C(C(=O)OC)C=C(O2)C(C(=C)C)[C@@H]2OC(=O)/C(=C\\C1O)[C@H]2N(C)C (stereo not given in full)", "=", 21),
    ("O=C1c2cccc3cccc(c23)C(=O)N1CCCCOc1ccc(-c2nc3ccc(N4CCOCC4)cc3[nH]2)cc1", "=", 2.68),
]
